Target: T1, UNK ZnF1-3 (human, UniProt Q9C0B0 31-174)
T1 sequence: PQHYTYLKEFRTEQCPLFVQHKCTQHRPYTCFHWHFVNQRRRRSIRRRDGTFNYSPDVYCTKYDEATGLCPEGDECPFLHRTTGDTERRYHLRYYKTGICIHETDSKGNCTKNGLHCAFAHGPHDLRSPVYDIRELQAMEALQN
Test: nsRBNS (natural sequence RNA bind-n-seq); RBNS binding buffer (assumed for nsRBNS): 25 mM Tris pH 7.5, 150 mM KCl, 3 mM MgCl2, 0.01% Triton X-100, 500 ug/ml BSA, 20 U/ml SUPERase-In, 4 C; UNK is unkempt and MSI1 is Musashi-1; names of the RNAs are library labels; protein concentration not given here; high values mean tight binding
Over roughly 24,000 sequences, “enrichment r” has its median near 0.99; the highest 2% begin near 3.7. Only a selection was taken, and the highest values are over-represented in it overall.
attribute measured: binding signal (enrichment R)
One number for each entry, in enrichment R.

{"binder": "chr17:56552419:56552420:-_ENSMUSG00000013236_ENSMUST00000086828|mus_mus|mus_mus_mus_hu_False|28_68 (ssRNA) RNA: GGGAGUUCUACAGUCCGACGAUCAAAAAAUACACUAUUUAAAAAAAAUGAAAUGUCACGGGAUACAAAAAAAUAUAGAGUUUUAAAAGAAAGCUGGAUUCUGGUCCUUGCCAAAAGUCCCCAGGCUGCAGAGCGGGGAGGAGCCAACAGAGGAUUGAGCAUCA", "attribute measured": "binding signal", "readout units": "enrichment R", "assay value": 9.22}

Please find the next binder below.
Quick one: binding signal for 82050892_82051012_2182_ncRNA_ENSMUSG00000021134_ENSMUST00000153056|mouse|control|control (ssRNA) RNA: GGGAGUUCUACAGUCCGACGAUCUUGUUUUGUUUUUUAAAAAAAGGCCCCCAGGGCAAGUUAUUUACAGUUUAAUUGCCACUGUCAACUGAUCUGGACCUGGACCGGGAUCGGGACCUCUGGCGAUCCACAGAUGCUGGAGAUCAACAGAGGAUUGAGCAUCA ?
1.31

Data origin, for the record: paper PMC12136788
